# tgt: Hepatocyte growth factor receptor (Homo sapiens) (UniProt P08581)
# Sequence (P08581 whole entry): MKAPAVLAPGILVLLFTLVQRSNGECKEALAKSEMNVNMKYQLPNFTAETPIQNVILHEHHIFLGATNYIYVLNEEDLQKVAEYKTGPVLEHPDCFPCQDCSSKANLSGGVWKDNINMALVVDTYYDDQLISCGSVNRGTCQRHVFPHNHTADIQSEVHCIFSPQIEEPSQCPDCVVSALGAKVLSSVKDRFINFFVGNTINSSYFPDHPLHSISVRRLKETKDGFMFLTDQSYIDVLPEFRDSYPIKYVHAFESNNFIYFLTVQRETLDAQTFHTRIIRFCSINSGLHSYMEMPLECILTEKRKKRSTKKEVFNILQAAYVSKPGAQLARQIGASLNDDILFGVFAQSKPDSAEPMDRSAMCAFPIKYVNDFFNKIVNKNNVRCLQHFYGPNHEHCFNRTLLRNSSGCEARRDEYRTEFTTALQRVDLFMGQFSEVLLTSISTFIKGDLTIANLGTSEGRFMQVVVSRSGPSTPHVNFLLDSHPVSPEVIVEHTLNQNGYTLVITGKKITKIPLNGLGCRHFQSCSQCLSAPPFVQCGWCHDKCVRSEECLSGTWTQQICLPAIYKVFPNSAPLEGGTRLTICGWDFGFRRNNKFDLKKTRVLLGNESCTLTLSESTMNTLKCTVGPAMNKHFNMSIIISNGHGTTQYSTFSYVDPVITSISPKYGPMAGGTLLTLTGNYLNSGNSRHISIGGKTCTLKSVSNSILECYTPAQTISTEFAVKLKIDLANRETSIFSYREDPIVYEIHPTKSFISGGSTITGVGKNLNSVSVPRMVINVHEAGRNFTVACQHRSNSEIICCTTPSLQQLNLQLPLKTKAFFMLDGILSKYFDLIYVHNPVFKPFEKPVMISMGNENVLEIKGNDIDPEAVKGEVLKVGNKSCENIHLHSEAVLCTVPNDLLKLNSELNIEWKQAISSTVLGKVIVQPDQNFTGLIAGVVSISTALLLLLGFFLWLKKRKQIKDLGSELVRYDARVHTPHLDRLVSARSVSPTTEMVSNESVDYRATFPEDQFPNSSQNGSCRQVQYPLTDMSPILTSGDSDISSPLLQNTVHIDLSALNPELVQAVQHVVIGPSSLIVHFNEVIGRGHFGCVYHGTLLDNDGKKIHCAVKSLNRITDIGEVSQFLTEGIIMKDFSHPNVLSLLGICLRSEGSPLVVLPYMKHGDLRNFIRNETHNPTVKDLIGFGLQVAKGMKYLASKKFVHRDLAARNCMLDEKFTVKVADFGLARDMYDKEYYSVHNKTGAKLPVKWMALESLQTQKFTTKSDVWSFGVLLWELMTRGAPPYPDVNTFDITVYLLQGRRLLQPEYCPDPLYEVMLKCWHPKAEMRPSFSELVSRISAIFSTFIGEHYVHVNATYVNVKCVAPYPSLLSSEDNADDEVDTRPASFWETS
# conditions-used: at 10 µM
measured-endpoint: residual activity (%)

1) CN(C)S(=O)(=O)c1ccc2c(c1)/C(=C/c1cc3c([nH]1)CCCC3)C(=O)N2: 130
2) O=C1NC(=O)C(c2c[nH]c3ccccc23)=C1c1c[nH]c2ccccc12: 43
3) Nc1ncnc2c1cnn2-c1ccccc1: 85
4) CCCC(=O)Oc1ccc2[nH]c(C(=O)c3cc4ccccc4[nH]3)cc2c1: 127
5) c1ccc(-c2cnc(Nc3ccc(OCCN4CCCC4)cc3)s2)cc1: 44
6) O=C(c1cc2cc(O)ccc2[nH]1)c1cc2cc(O)ccc2[nH]1: 29
7) Cn1sc(=O)n(Cc2ccccc2)c1=O: 95
8) N#C/C(=C\c1ccc(O)c(O)c1)C(=O)NCc1ccccc1: 73
9) O=c1c(-c2ccc(F)cc2)c(-c2ccncc2)[nH]n1-c1ccc(Cl)cc1: 28
10) Oc1cccc(-c2nc(N3CCOCC3)c3oc4ncccc4c3n2)c1: 133
11) O=C1Nc2ccc(Cl)cc2/C1=C/c1cc(Cl)c(O)c(Cl)c1: 79
12) O=C(c1ccccc1)c1ccc(N2CCOCC2)cc1O: 66
13) O=C1NC(=O)c2c1c1c3ccccc3[nH]c1n1cncc21: 92
14) CC(C)N(CCC(=O)c1ccc2ccccc2c1)Cc1ccccc1: 79
15) Cc1cc(C)c(/C=C2\C(=O)Nc3ccccc32)[nH]1: 98
16) O=C1Nc2ccccc2/C1=C\c1c(Cl)[nH]c2ccccc12: 40
17) COc1cc2nccc(Oc3ccc(NC(=S)NC(=O)c4ccccc4C)cc3)c2cc1OC: 4
18) COc1ccc(COc2ccc(Cc3cnc(N)nc3N)cc2OC)cc1: 129
19) COc1cc2ncnc(Nc3cccc(Cl)c3)c2cc1OC: 70
20) Nc1nccc(-c2c(-c3ccc(F)cc3)ncn2C2CCNCC2)n1: 82
